Biological target: Human Calpain 9/NS1 (Homo sapiens, UniProt O14815)
Sequence (O14815 whole entry): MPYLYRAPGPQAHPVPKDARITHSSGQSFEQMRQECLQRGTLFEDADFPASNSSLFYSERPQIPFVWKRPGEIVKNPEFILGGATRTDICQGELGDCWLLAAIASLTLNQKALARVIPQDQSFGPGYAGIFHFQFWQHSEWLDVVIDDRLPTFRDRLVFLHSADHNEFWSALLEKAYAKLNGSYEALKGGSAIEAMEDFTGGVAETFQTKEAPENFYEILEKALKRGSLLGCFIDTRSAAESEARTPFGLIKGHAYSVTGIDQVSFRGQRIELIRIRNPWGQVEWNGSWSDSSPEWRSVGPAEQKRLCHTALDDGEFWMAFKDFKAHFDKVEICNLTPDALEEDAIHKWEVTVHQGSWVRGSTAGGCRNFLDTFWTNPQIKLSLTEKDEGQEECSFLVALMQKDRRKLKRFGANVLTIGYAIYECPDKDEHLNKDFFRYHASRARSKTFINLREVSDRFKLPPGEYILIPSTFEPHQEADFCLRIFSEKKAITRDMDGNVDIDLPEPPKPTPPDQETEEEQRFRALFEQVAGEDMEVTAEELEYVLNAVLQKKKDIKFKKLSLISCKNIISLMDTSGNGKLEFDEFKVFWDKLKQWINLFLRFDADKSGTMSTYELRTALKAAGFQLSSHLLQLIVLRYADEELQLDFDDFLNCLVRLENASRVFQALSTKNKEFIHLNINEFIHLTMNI
Sequence (P04632 whole entry partner): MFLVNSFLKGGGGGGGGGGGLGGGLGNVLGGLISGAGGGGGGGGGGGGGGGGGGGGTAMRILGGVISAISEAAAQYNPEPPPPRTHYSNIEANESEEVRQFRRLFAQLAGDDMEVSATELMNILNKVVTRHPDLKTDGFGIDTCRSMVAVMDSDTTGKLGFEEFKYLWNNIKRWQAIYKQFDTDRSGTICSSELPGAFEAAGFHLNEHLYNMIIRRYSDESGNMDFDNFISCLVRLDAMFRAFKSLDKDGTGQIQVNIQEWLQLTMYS
Experiment: Calpain inhibition continuous fluorescence (FRET) assay, Human Calpain 9/NS1
Assay type: biochemical
Conditions: Column C; read-out: Human Calpain 9/NS1 IC50
endpointLabel: IC50

Below, 3 molecules whose answers are already recorded.
molecule=Cc1cc(C(=O)N[C@@H](Cc2ccccc2)C(=O)C(N)=O)n(-c2cccc(-c3ccccc3C)c2)n1 observedvalue="< 3 µM"
molecule=Cc1ccccc1-c1nn(C)cc1C(=O)N[C@@H](Cc1ccccc1)C(=O)C(N)=O observedvalue="< 3 µM"
molecule=NC(=O)C(=O)[C@H](Cc1ccccc1)NC(=O)c1csnc1-c1ccccc1 observedvalue="< 3 µM"

Form field - read-out: IC50; system: Human Calpain 9/NS1 (Homo sapiens, UniProt O14815); submitted item: `Cc1cc(C(=O)N[C@@H](Cc2ccccc2)C(=O)C(N)=O)n(-c2ccc(CNC(=O)CCc3ccccc3)cc2)n1`
< 3 µM

Also need `Cc1cc(-n2nc(C(=O)N[C@@H](Cc3ccccc3)C(=O)C(N)=O)cc2C)nc(C)n1` , thanks.
3 to 10 µM

Also need `NC(=O)C(=O)[C@H](Cc1ccccc1)NC(=O)c1nonc1-c1ccccc1` , thanks.
< 3 µM

Also need `Cc1cc(C(=O)N[C@@H](Cc2ccccc2)C(=O)C(N)=O)n(-c2cccc(CNC(=O)c3ccccc3)c2)n1` , thanks.
< 3 µM

Also need `Cc1cc(C(=O)N[C@@H](Cc2ccccc2)C(=O)C(=O)NC2CC2)n(-c2ccc(C(F)(F)F)cn2)n1` , thanks.
< 3 µM

Also need `O=C(NC1CC1)C(=O)[C@H](Cc1ccccc1)NC(=O)c1cncn1-c1n[nH]c2ccccc12` , thanks.
> 10 µM

Also need `Cn1cnc(-c2ccccc2)c1C(=O)N[C@@H](Cc1ccccc1)C(=O)C(N)=O` , thanks.
< 3 µM

Also need `Cc1cc(C(=O)N[C@@H](Cc2ccccc2)C(=O)C(=O)NC2CC2)n(-c2ncccn2)n1` , thanks.
> 10 µM

Also need `NC(=O)C(=O)[C@H](Cc1ccccc1)NC(=O)c1nccn1-c1ccccc1` , thanks.
< 3 µM

Also need `CC[C@H](NC(=O)c1oc(C)nc1-c1ccccc1)C(=O)C(N)=O` , thanks.
< 3 µM

Also need `O=C(NC1CC1)C(=O)[C@H](Cc1ccccc1)NC(=O)c1scnc1-n1ncc2ccccc21` , thanks.
< 3 µM

Also need `CC(C)(C)c1cc(C(=O)N[C@@H](Cc2ccccc2)C(=O)C(N)=O)n(-c2ccccc2)n1` , thanks.
3 to 10 µM

Also need `CCn1cc(C(=O)N[C@@H](Cc2ccccc2)C(=O)C(N)=O)c(-c2ccccc2)n1` , thanks.
< 3 µM

Data origin: patent US11339130B1
